Hello, the source for this data is patent US9890185B2, in case you need it.

Reported % β-catenin induction by item:
System: d-U937 cells
TEST_PROTOCOL: Accumulation of β catenin in d-U937 cells (assay m)
Type: cell-based, human
COND: test compound 10 μg/mL; percentage relative to Reference Compound at 1 μg/mL
// note: answer is a bare numeric in %

Reference set, count: 6
[
  {
    "MOLECULE": "COc1cc(CO)cc(Nc2cc(Oc3ccc(NC(=O)Nc4cc(C(C)(C)C)cc(CC(N)=O)c4OC)c4ccccc34)ccn2)c1",
    "TESTED_ON": "d-U937 cells",
    "% β-catenin induction, %": 37.0
  },
  {
    "MOLECULE": "COCCOCCOCCOc1cc(Nc2cc(Oc3ccc(NC(=O)Nc4cc(C(C)(C)C)cc([S+](C)[O-])c4OC)c4ccccc34)ccn2)cc(OC)c1 (stereo not shown)",
    "TESTED_ON": "d-U937 cells",
    "% β-catenin induction, %": "−5.5"
  },
  {
    "MOLECULE": "COc1c(NC(=O)Nc2ccc(Oc3ccnc(Nc4cnccn4)n3)c3ccccc23)cc(C(C)(C)C)cc1P(C)(C)=O",
    "TESTED_ON": "d-U937 cells",
    "% β-catenin induction, %": 2.5
  },
  {
    "MOLECULE": "COc1c(CS(C)(=O)=O)cc(C(C)(C)C)cc1NC(=O)Nc1ccc(Oc2ccnc(Nc3ccccc3)c2)c2ccccc12",
    "TESTED_ON": "d-U937 cells",
    "% β-catenin induction, %": 13.0
  },
  {
    "MOLECULE": "COc1cccc(Nc2cc(Oc3ccc(NC(=O)Nc4cc(C(C)(C)C)cc(CNC(C)=O)c4OC)c4ccccc34)ccn2)c1",
    "TESTED_ON": "d-U937 cells",
    "% β-catenin induction, %": 20.5
  },
  {
    "MOLECULE": "COc1cc(Nc2cc(Oc3ccc(NC(=O)Nc4cc(C(C)(C)C)cc(P(C)(C)=O)c4OC)c4ccccc34)ccn2)cc(C(N)=O)c1",
    "TESTED_ON": "d-U937 cells",
    "% β-catenin induction, %": 25.5
  }
]

Tell us which % β-catenin induction value is on record for COc1c(NC(=O)Nc2ccc(Oc3ccnc(Nc4ccccc4)c3)c3ccccc23)cc(C(C)(C)C)cc1[S+](C)[O-] (racemic) 6.0

Tell me its % β-catenin induction given `COc1cc(Nc2cc(Oc3ccc(NC(=O)Nc4cc(C(C)(C)C)cc(CC(N)=O)c4OC)c4ccccc34)ccn2)ccn1` as the entry. 52.0

Return the recorded % β-catenin induction value; entry: `COc1c(CNC(C)=O)cc(C(C)(C)C)cc1NC(=O)Nc1ccc(Oc2ccnc(Nc3ccccc3)c2)c2ccccc12` 23.5

Using known records, supply % β-catenin induction for `COc1c(CC(N)=O)cc(C(C)(C)C)cc1NC(=O)Nc1ccc(Oc2ccnc(Nc3ccccc3)c2)c2ccccc12` 9.5

Answer with the recorded % β-catenin induction of `COc1c(NC(=O)Nc2ccc(Oc3ccnc(Nc4cc(C)cc(C)c4)c3)c3ccccc23)cc(C(C)(C)C)cc1P(C)(C)=O` only. 11.3

Provide measured % β-catenin induction value, entry: `COCCOCCOCCOc1cc(Nc2cc(Oc3ccc(NC(=O)Nc4cc(C(C)(C)C)cc(P(C)(C)=O)c4OC)c4ccccc34)ccn2)cc(OC)c1` 31.5
